Provide the recorded GI50 for the entries that follow.
# Tested on: LOX IMVI
# assay summary: NCI tumour cell line growth inhibition, 48 h
Activity calls are given as the source filed them. No stated cut-off is given here; in the data, active = GI50 up to about 1.1 µM and inactive = higher.

What is its GI50 for LOX IMVI? Entry: Cc1nc(Nc2ccc(Cl)c(Cl)c2)sc1C(/C=C/c1ccc2c(c1)OCO2)=N/Nc1ccc([N+](=O)[O-])cc1[N+](=O)[O-]
67 µM (inactive)

Quick check: GI50 on LOX IMVI, item COc1ccccc1-c1cc(=O)c2ccccc2[nH]1 ?
> 100 µM (inactive)

Identify the measured GI50 of N=C(N)N/N=C/c1c(-c2cccc([N+](=O)[O-])c2)nc2n1CCS2 for LOX IMVI.
16.6 µM (inactive)

Record lookup: for LOX IMVI, what GI50 belongs to CCOc1ccc(NC(=O)CC2SC(Nc3ccc(Cl)cc3)=NC2=O)cc1 (stereo unspecified) ?
> 100 µM (inactive)

Find GI50 (LOX IMVI) for the entry C=CCc1cccc(C(=O)/C=C(O)/C=C/c2ccccc2Cl)c1O
7.01 µM (inactive)

Field: GI50 (LOX IMVI). Entry: O=[N+]([O-])c1cccc(Nc2nc(Cl)nc(Cl)n2)c1
> 100 µM (inactive)

Please state recorded GI50 (tested on LOX IMVI) of COc1cccc(/N=N/C(=NNC(=O)c2ccc(C)cc2)c2ccc(N(C)C)cc2)c1
> 100 µM (inactive)

Lab note: need GI50 for CC1(C)OP23(NC(=O)OC2(C(F)(F)F)c2ccccc2O3)OC1(C)C (stereo unspecified) on LOX IMVI, anyone have it?
> 100 µM (inactive)

// map Cn1c(=O)nc2n(CCO)c(-c3ccccc3)c(-c3ccccc3)nc-2c1=O to recorded GI50 (system: LOX IMVI)
> 100 µM (inactive)

Request body: readout GI50, system LOX IMVI, query CCSc1nn(-c2c3ccccc3nc3ccccc23)c(=S)s1 . Return the value.
> 100 µM (inactive)

Form entry - test system: LOX IMVI; read-out: GI50; compound: CC(C)(C)COC(=O)C(C)(C)NC(=O)C(CC(=O)OCc1ccccc1)NC(=O)OCc1ccccc1 (stereo unspecified)
43.5 µM (inactive)

For the record O=C(N/C(=C\c1ccc(Br)cc1)c1nc2ccccc2s1)c1ccccc1 , what value of GI50 is listed for LOX IMVI?
65.2 µM (inactive)

Find GI50 (LOX IMVI) for the entry Oc1c2c(c(O)c3ccccc13)C1(N=N2)c2ccccc2Oc2ccccc21
2.38 µM (inactive)

Form field: GI50 recorded for CC(C)(C)n1c(=O)[nH]c(=O)n1C(C)(C)C with LOX IMVI (enter value)
> 100 µM (inactive)

Provide value of GI50 for this record tested with LOX IMVI: CN1CCc2ccccc2C(C(=O)c2ccc3c(c2)OCO3)C1=O (stereo unspecified)
> 100 µM (inactive)

Request body: readout GI50, system LOX IMVI, query CCOC(=O)NNC(=O)NC12CC3CC(CC(C3)C1)C2 . Return the value.
> 100 µM (inactive)

Query GI50 on LOX IMVI for O=C(CCc1nnc2s/c(=C\c3ccc(Cl)cc3Cl)c(=O)n12)Nc1cc(Cl)c(Cl)cc1Cl
> 10 µM (inactive)

State its GI50 on LOX IMVI: COc1cc2ccnc3c2c(c1O)N(C)C=C3
8.39 µM (inactive)

Report GI50 for CC(=O)OCC1C(C(C)OC(C)=O)CCC2C1CCC1(C)C(OC(C)=O)CCC21 (stereo unspecified) tested on LOX IMVI.
14.7 µM (inactive)

Look up GI50 with LOX IMVI for this compound: N#C/N=N/c1cc(Cl)c(/N=N/C#N)cc1Cl
38.6 µM (inactive)

Form field: GI50 recorded for Cc1nc(NC(=S)NC(=O)c2ccc(Cl)c(Cl)c2)sc1C(=O)/C=C/c1ccccc1[N+](=O)[O-] with LOX IMVI (enter value)
16.6 µM (inactive)
